Measured pIC50, listed per entry.
# test-target: mGluR5 (Rattus norvegicus, UniProt P31424)
# Sequence (P31424 21-1203): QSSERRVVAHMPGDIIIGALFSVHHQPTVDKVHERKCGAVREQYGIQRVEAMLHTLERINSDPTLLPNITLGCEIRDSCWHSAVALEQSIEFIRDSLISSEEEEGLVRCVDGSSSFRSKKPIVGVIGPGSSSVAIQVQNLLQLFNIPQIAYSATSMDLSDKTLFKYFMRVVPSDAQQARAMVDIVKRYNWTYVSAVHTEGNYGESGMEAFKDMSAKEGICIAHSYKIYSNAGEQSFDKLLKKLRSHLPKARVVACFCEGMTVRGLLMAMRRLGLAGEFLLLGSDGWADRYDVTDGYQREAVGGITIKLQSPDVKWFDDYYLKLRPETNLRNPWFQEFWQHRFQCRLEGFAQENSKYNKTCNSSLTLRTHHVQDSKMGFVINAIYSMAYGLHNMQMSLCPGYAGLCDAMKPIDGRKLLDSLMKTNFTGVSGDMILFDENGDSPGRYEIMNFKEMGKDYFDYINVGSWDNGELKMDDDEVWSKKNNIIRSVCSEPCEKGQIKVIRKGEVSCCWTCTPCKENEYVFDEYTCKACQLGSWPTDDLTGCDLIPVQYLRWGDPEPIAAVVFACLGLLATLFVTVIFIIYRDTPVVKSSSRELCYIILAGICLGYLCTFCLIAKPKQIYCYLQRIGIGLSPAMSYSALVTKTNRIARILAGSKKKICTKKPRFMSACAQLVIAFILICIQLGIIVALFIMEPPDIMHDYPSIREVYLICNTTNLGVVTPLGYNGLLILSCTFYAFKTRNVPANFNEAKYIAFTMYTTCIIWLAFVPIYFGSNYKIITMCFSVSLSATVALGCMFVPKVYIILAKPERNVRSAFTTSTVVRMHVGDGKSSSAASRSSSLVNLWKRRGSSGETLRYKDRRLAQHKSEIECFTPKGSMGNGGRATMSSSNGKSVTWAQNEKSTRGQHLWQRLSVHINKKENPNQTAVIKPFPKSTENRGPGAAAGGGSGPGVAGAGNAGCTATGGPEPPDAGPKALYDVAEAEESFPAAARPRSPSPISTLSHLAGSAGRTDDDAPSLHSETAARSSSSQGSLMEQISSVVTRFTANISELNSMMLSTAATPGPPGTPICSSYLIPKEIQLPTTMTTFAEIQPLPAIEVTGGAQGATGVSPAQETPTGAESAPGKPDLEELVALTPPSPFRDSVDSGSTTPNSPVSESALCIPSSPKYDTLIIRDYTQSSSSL
# procedure-summary: IC50 column under 'Biological Activity' (assay not identified in the shown text; not the binding Ki)
pIC50: −log10 of the molar value.

Below, 2 compounds whose answers are already recorded.
input-smiles: COc1ccc(C(=O)N2CCN(S(=O)(=O)c3ccc4ccccc4c3)CC2)cc1C#Cc1ccccn1
test-target: mGluR5 (Rattus norvegicus, UniProt P31424)
pIC50: < 3.00
--
input-smiles: COc1ccc(C(=O)N2CCN(c3ccc([N+](=O)[O-])cc3)CC2)cc1C#Cc1ccccn1
test-target: mGluR5 (Rattus norvegicus, UniProt P31424)
pIC50: < 6.00

Observed pIC50 on mGluR5 (Rattus norvegicus, UniProt P31424) for `COc1ccc(C(=O)N2CCN(S(=O)(=O)c3ccc4c(c3)OCCO4)CC2)cc1C#Cc1ccccn1` , please.
< 6.00

====

# test-target: mGluR5 (Rattus norvegicus, UniProt P31424)
# procedure-summary: IC50 column under 'Biological Activity' (assay not identified in the shown text; not the binding Ki)
attribute-measured: IC50 (nM)
Report as a plain number; the unit nM is understood.

Example entries begin here.
compound: O=C(c1ccc(Cl)c(C#Cc2ccccn2)c1)N1CCN(c2ncccn2)CC1 [Compound 387]
endpoint-result: 131
//
compound: O=C(c1ccc(Cl)c(C#Cc2ccccn2)c1)N1CCN(c2ncccc2Cl)CC1 [Compound 394]
endpoint-result: 145
//
compound: COc1cccc(N2CCN(C(=O)c3ccc(Cl)c(C#Cc4ccccn4)c3)CC2)c1 [Compound 395]
endpoint-result: 113
//
compound: O=C(c1ccc(Cl)c(C#Cc2ccccn2)c1)N1CCN(c2cnccn2)CC1 [Compound 388]
endpoint-result: 94
//
compound: COc1nc(N2CCN(C(=O)c3ccc(OC(F)F)c(C#Cc4ccccn4)c3)CC2)ncc1Br [Compound 382]
endpoint-result: 104

Requested read-out: IC50. Entry: O=C(c1ccc(Cl)c(C#Cc2ccccn2)c1)N1CCN(c2cccc(O)c2)CC1 [Compound 393]
144

====

# pIC50 per record follows
# test-target: mGluR5 (Rattus norvegicus)
# procedure-summary: IC50 column under 'Biological Activity' (assay not identified in the shown text; not the binding Ki)
pIC50: −log10 of the molar value.

Please review the entries below; each comes with its answer.
input-smiles: COc1ccc(C(=O)N2CCN(S(=O)(=O)c3ccc(Cl)s3)CC2)cc1C#Cc1ccccn1
pIC50: < 6.00
//
input-smiles: COc1ccc(N2CCN(C(=O)c3ccc(OC)c(C#Cc4ccccn4)c3)CC2)cc1
pIC50: < 6.00

Below: the item to evaluate.
Any idea what pIC50 was measured for `COc1ccc(C(=O)N2CCN(c3ccncc3)CC2)cc1C#Cc1ccccn1` ?
< 6.00

====

# test-target: rat mGluR5 receptor (Rattus norvegicus, UniProt P31424)
# Construct: expressed in transfected cells; host or cells: HEK-293
# Sequence (P31424 21-1203): as above
# procedure-summary: [3H]-MPEP displacement binding assay, HEK-293 cell membranes expressing rat mGluR5
# test-parameters: 1 h, single point, @ 10 μm compound; Table 1A; read-out: PCT INHIB (%) @ 10 μm
attribute-measured: inhibition at 10 µM (%)
Lab book: enter the figure in %, no units written.

input-smiles: O=C(c1cccc(C#CC2(O)CCCC2)c1)N1CCN(c2ccccn2)CC1
attribute-measured: inhibition at 10 µM
endpoint-result: 0

input-smiles: Cc1cccc(C#Cc2cc(C(=O)N3CCN(c4cnccn4)CC3)ccc2C)c1
attribute-measured: inhibition at 10 µM
endpoint-result: 100

input-smiles: COc1cc(C#Cc2cc(C(=O)N3CCN(c4ccccn4)CC3)ccc2OC)cc(OC)c1
attribute-measured: inhibition at 10 µM
endpoint-result: 0

API: value(readout= inhibition at 10 µM, system= rat mGluR5 receptor (Rattus norvegicus, UniProt P31424), query= `Cc1cc(C)c(C#Cc2cc(C(=O)N3CCN(c4ccccn4)CC3)ccc2C)cc1C` )
0

Form entry - test system: rat mGluR5 receptor (Rattus norvegicus, UniProt P31424); read-out: inhibition at 10 µM; molecule: `Cc1ccc(C(=O)N2CCN(c3ccccn3)CC2)cc1C#Cc1ccncc1`
49

Request body: readout inhibition at 10 µM, system rat mGluR5 receptor (Rattus norvegicus, UniProt P31424), query `O=C(c1cccc(C#Cc2ccc(Cl)cc2)c1)N1CCN(c2ccccn2)CC1` . Return the value.
45

====

# test-target: rat mGluR5 receptor (Rattus norvegicus)
# Construct: expressed in transfected cells; host or cells: HEK-293
# procedure-summary: [3H]-MPEP displacement binding assay, HEK-293 cell membranes expressing rat mGluR5
# test-parameters: 1 h, single point, @ 10 μm compound; Table 1A; read-out: PCT INHIB (%) @ 10 μm
Give true when the value for inhibition at 10 µM is at least 70%. Give false when it is less.

Field: example entries. Status: answers known.
input-smiles: COc1ccc(C(=O)N2CCN(c3ccccn3)CC2)cc1C#CCc1ccccc1
label: true

input-smiles: Cc1ccc(C(=O)N2CCN(c3ccccn3)CC2)cc1C#Cc1ccccn1
label: true

input-smiles: COc1ccc(C(=O)N2CCN(c3ccccn3)CC2)cc1C#Cc1cc(C(F)(F)F)cc(C(F)(F)F)c1
label: false

input-smiles: Cc1ccc(C)c(C#Cc2cc(C(=O)N3CCN(c4ccccn4)CC3)ccc2C)c1
label: false

input-smiles: O=C(c1cccc(C#Cc2cccc(O)c2)c1)N1CCN(c2ccccn2)CC1
label: true

input-smiles: O=C(c1cccc(C#Cc2ccccc2C(F)(F)F)c1)N1CCN(c2ccccn2)CC1
label: false

Now turn to the next molecule.
Is inhibition at 10 µM for `Cn1cncc1C#Cc1cccc(C(=O)N2CCN(c3ccccn3)CC2)c1` at or above 70%?
false
